Data origin, for the record: patent US5942503A

Ki overview
measuredOn: rat 5HT7 receptor (Rattus norvegicus)
Construct: expressed in transfected cells; host or cells: CHO cells
Sequence (P32305 whole entry): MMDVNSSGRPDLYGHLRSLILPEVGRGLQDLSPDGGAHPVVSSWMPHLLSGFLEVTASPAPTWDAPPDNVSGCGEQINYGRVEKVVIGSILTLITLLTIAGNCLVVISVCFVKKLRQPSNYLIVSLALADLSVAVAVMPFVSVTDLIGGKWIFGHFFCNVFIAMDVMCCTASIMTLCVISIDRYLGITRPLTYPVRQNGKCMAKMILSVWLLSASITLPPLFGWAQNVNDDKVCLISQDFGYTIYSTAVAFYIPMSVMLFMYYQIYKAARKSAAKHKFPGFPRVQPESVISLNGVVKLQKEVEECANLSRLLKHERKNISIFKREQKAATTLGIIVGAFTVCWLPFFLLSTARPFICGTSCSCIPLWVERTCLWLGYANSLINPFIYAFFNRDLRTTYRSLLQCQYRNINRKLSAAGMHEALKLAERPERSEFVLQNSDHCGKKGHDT
measurementDescription: Binding of [3H] LSD to rat 5HT7 receptor expressed in CHO cells
assayContext: mean of three experiments; 2.0 nM [3H] LSD, 60 minutes at 37° C.; read-out: mean Ki value
Give me the value, and tack the unit on after it.

compound	Ki
NC1=NCC2c3ccccc3Cc3ccccc3N12 (single isomer, unassigned; (+)) [Epinastine (+) Enantiomer]	28 nM

Now let's try a different one.
Returns the measured Ki for the input compound. Input: NC1=NCC2c3ccccc3Cc3ccccc3N12 (single isomer, unassigned; (-)) [Epinastine (-) Enantiomer] 189 nM

----------
measuredOn: rat 5HT7 receptor (Rattus norvegicus)
Construct: expressed in transfected cells; host or cells: CHO cells
measurementDescription: Binding of [3H] LSD to rat 5HT7 receptor expressed in CHO cells
assayContext: mean Ki value, mean of three experiments; 2.0 nM [3H] LSD, 60 minutes at 37° C.
Where a name gives a salt, the structure may show the parent alone.
testReadout: Ki
Give me the value, and tack the unit on after it.

Returns the measured Ki for the input compound. Input: NC1=NCC2c3ccccc3Cc3ccccc3N12 (racemic) [Epinastine, hydrochloride] 33 nM
